Just for reference, patent US20260193326A1 is where these values come from.

Target: AAV8 (adeno-associated virus serotype 8)
Assay: SPR, AAV on CM5 chip
Assay readout: pKd
Note: pKd values are expressed as the negative base-10 logarithm of concentration in M.

A4-C8 (bispecific antibody) VQLQESGGGLVQPGGSLRLSCAASGSNFRINTMGWYRQAPGKQRELVAPVTRGGSTNYADSVKGRFTISRDNAKNTVYLQMNSLRPEDTAVYYCHVDEVRESSWTTSNLWGQGTQVTVSSGGGGSGGGGSGGGGSVQLQESGGGLVQPGGSLRLSCAASGSNFSINTMGWYRQAPGKQRELVATVTRGGDTNYADSVKGRFTISRDNAKNTVYLQMNSLRPEDTAVYYCHVDEIRESSWTTSNLWGQGTQVTVSSGGGGSGGGGSGGGGSVQLQESGGGLVQPGGSLRLSCAASGSNFSINTMGWYRQAPGKQRELVAALTRGGSTNYADSVKGRFTISRDNAKNTVYLQMNSLRPEDTAVYYCHVDEVRESSWTTSNLWGQGTQVTVSS	8.55

We now examine a further binder.
Answer with the recorded pKd for the binder listed here: A4-C6 (bispecific antibody) VQLQESGGGLVQPGGSLRLSCAASGSNFRINTMGWYRQAPGKQRELVAPVTRGGSTNYADSVKGRFTISRDNAKNTVYLQMNSLRPEDTAVYYCHVDEVRESSWTTSNLWGQGTQVTVSSGGGGSGGGGSGGGGSVQLQESGGGLVQPGGSLRLSCAASGSNFSINTMGWYRQAPGKQRELVAALTRGGSTNYADSVKGRFTISRDNAKNTVYLQMNSLRPEDTAVYYCHVDEVRESSWTTSNLWGQGTQVTVSSGGGGSGGGGSGGGGSVQLQESGGGLVQPGGSLRLSCAASGSNFSINTMGWYRQAPGKQRELVATVTRGGDTNYADSVKGRFTISRDNAKNTVYLQMNSLRPEDTAVYYCHVDEIRESSWTTSNLWGQGTQVTVSS
8.57
